# run.conditions: 288.15 K; 40000 kPa; Liquid; Vibrating tube method
Some compounds, each annotated with its measured mass density.

compound: CCOC(=O)OCC [diethyl carbonate]
mass density / kg/m3: 1010.5
//
compound: CCCCCCCCCC
mass density / kg/m3: 758.9
//
compound: CCCCCCCC
mass density / kg/m3: 734.3
//
compound: COC(=O)OC [dimethyl carbonate]
mass density / kg/m3: 1107.5

---

# run.conditions: 298.15 K; 100 kPa; Liquid; Vibrating tube method
Some compounds, each annotated with its measured mass density.
experimental.endpoint: mass density (kg/m3)

compound: CCCCCCCC
endpoint.value: 698.6

compound: CCOC(=O)OCC [diethyl carbonate]
endpoint.value: 968.9

compound: CCCCCCCCCC
endpoint.value: 726

compound: COC(=O)OC [dimethyl carbonate]
endpoint.value: 1062.9
